Target: T1, recombinant human OX40-his protein (human, UniProt P43489 29-214)
T1 construct: Secreted via the native signal peptide, which lies within residues 1-214; also called Human OX40R-His; histidine tagged human OX40 receptor extracellular domain
T1 sequence: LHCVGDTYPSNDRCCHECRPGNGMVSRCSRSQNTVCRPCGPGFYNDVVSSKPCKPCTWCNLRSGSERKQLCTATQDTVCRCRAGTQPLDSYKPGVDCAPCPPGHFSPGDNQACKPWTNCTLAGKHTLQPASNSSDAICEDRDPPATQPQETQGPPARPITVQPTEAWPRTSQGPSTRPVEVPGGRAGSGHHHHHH
Assay: SPR (BIAcore 2000), antibody captured on Protein A, OX40-his injected
measuredEndpoint: koff (s⁻¹)
Provide the reading as a plain figure in s⁻¹.

// query Look up koff: Humanized 7H11 VH1/VL1 IgG1 (antibody, V domains shown, human IgG1, kappa; also called Humanized VH1-VL1 IgG1) VH: QVQLVQSGAEVKKPGASVKVSCKASGYTFTRYYMHWVRQAPGQGLEWMGWIYPGDGSTKYSQKFQGRVTITRDTSASTAYMELSSLRSEDTAVYYCAREYGNYDYWGQGTLVTVSS VL: DIVMTQSPDSLAVSLGERATINCKSSQSLLNSGNQKNYLAWYQQKPGQPPKLLIYGASTRESGVPDRFSGSGSGTDFTLTISSLQAEDVAVYYCQNDHSYPYTFGQGTKLEIKR
// result 0.00058

// query If you can, please state the reported koff value of Humanized 7H11 VH3/VL1 IgG1 (antibody, V domains shown, human IgG1, kappa; also called Humanized VH3-VL1 IgG1) VH: QVQLVQSGAEVKKPGASVKVSCKASGYTFTRYYMHWVRQAPGQGLEWMGIIYPGDGSTSYAQKFQGRVTMTRDTSTSTVYMELSSLRSEDTAVYYCAREYGNYDYWGQGTLVTVSS VL: DIVMTQSPDSLAVSLGERATINCKSSQSLLNSGNQKNYLAWYQQKPGQPPKLLIYGASTRESGVPDRFSGSGSGTDFTLTISSLQAEDVAVYYCQNDHSYPYTFGQGTKLEIKR .
// result 0.0055

// query Entry Humanized 7H11 VH2/VL1 IgG1 (antibody, V domains shown, human IgG1, kappa; also called Humanized VH2-VL1 IgG1) VH: QVQLVQSGAEVKKPGASVKVSCKASGYTFTRYYMHWVRQAPGQGLEWMGWIYPGDGSTNYAQKFQGRVTMTRDTSISTAYMELSRLRSDDTAVYYCAREYGNYDYWGQGTLVTVSS VL: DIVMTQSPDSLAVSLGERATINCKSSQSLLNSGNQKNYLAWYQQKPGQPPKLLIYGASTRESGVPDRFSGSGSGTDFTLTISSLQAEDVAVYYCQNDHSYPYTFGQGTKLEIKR has what koff?
// result 0.0013

// query // koff lookup, key: Chimeric 7H11 IgG1 (antibody, V domains shown, Mouse variable domains on human IgG1 heavy constant domains and human kappa constant domain; also called 7H11 (chimeric); chimeric 7H11 antibody) VH: QVQLQQSGPELVKPGASVKMSCKASGYTFTRYYIHWMNQRPGQGLEWIGWIYPGDGSTKYNEKFKGKTTLTADTSSSTAYMLLSSLTSEDSAIYFCAREYGNYDYWGQGTTVTVSS VL: DIVMTQSPSSLSVSAGEKVTMSCKSSQSLLNSGNQKNYLAWYQQKPGQPPKLLIYGASTRESGVPDRFTGSGSGTDFTLTISSVQAEDLAVYYCQNDHSYPYTFGGGTKLEIK
// result 0.00066
